test system: Mus musculus; assay: Ex vivo inhibition of LTB4 production in mouse whole blood at 10 mg/kg; type: functional; details: Mus musculus, Blood
experimental-endpoint: inhibition in vivo at 10 mg/kg (%)
Write the number in % without appending the unit.

A selection of reference data follows.
NC(=O)C1CCN(CCOc2ccc(Cc3ccccc3)cc2)CC1 = 95
OCC1CCN(CCOc2ccc(Cc3ccccc3)cc2)CC1 = 85
OC1CCN(CCOc2ccc(Cc3ccccc3)cc2)C1 (stereo unspecified) = 50
NC(=O)CC1CCN(CCOc2ccc(Cc3ccccc3)cc2)C1 (stereo unspecified) = 4
COC(=O)CC1CCN(CCOc2ccc(Cc3ccccc3)cc2)C1 (stereo unspecified) = 75

So what inhibition in vivo at 10 mg/kg did `c1ccc(Cc2ccc(OCCN3CCCCC3)cc2)cc1` get with Mus musculus?
8

Recall the recorded inhibition in vivo at 10 mg/kg for CC(=O)NC1CCN(CCOc2ccc(Cc3ccccc3)cc2)C1 (stereo unspecified) with Mus musculus and state it.
22

Report inhibition in vivo at 10 mg/kg for `CNC(=O)C1CCN(CCOc2ccc(Cc3ccccc3)cc2)CC1` tested on Mus musculus.
92

Request - read-out inhibition in vivo at 10 mg/kg | tested on Mus musculus | molecule COC(=O)C1CC2CC1CN2CCOc1ccc(Cc2ccccc2)cc1 (stereo unspecified)
50

Lab request: please report inhibition in vivo at 10 mg/kg under test system Mus musculus for COC(=O)CC1CC2CC1CN2CCOc1ccc(Cc2ccccc2)cc1 (stereo in doubt; 26)
80

* * *

tested on: Mus musculus; test: Ex vivo inhibition of LTB4 production in mouse whole blood at 10 mg/kg; format: functional; conditions: Mus musculus, Blood
inhibition in vivo at 10 mg/kg values, listed per item
Quick note: give the figure in %, leave out the unit.

Using the record for `N#CC1CCN(CCOc2ccc(Cc3ccccc3)cc2)CC1` , report its inhibition in vivo at 10 mg/kg.
56

Entry under review: `CCOC(=O)CNC(=O)C1CCN(CCOc2ccc(Cc3ccccc3)cc2)CC1` . Reported inhibition in vivo at 10 mg/kg?
91

Item under review: `COC(=O)[C@@H]1CCCN1CCOc1ccc(Cc2ccccc2)cc1` . Reported inhibition in vivo at 10 mg/kg?
0

Entry NC(=O)C1CCN(CCOc2ccc(Cc3ccccc3)cc2)C1 (centres undefined) has what inhibition in vivo at 10 mg/kg?
60

* * *

The entries below come with measured ED90 values attached.
organism: Mus musculus; assay: Oral potency for Ex vivo inhibition of LTB4 production in mouse whole blood; assay type: functional
Express it in mg/kg; write the number only.

Sample answers from the record:
NC(=O)C1CCN(CCOc2ccc(Cc3ccccc3)cc2)CC1 = 3
CN(CCCOc1ccc(Cc2ccccc2)cc1)CCC(=O)O = 1
COC(=O)CC1CCN(CCOc2ccc(Cc3ccccc3)cc2)C1 (stereo unspecified) = 10
CCOC(=O)CNC(=O)C1CCN(CCOc2ccc(Cc3ccccc3)cc2)CC1 = 3

Note: attention shifts to another entry.
Given the molecule `c1ccc(Cc2ccc(OCCN3CCC(c4nnn[nH]4)CC3)cc2)cc1` , what is its reported ED90?
3

* * *

target: Leukotriene A-4 hydrolase (Homo sapiens); test: Inhibition of leukotriene A4 hydrolase in human recombinant assay
Sequence (P09960 whole entry): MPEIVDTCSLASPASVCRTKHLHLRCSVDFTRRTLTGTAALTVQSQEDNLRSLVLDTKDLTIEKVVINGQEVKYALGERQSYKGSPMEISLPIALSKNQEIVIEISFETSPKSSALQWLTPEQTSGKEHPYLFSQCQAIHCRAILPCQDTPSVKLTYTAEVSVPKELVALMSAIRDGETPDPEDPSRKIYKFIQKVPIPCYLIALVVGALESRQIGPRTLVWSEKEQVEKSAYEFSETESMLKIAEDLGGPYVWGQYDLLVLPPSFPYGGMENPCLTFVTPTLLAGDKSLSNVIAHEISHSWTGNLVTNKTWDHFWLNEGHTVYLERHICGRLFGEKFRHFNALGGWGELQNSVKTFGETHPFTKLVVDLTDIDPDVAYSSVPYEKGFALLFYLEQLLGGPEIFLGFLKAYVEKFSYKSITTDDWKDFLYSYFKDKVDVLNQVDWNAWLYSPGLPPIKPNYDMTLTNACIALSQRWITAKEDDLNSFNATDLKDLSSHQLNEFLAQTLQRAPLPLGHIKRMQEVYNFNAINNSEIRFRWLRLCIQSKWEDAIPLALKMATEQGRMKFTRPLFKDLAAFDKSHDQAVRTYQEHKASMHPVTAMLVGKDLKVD
Lab note: compare IC50 with 100 nM, writing t if less and f if equal or more.

# count of solved cases: 3
COC(=O)C1CC2CC1CN2CCOc1ccc(Cc2ccccc2)cc1 (stereo not drawn) = t
CCOC(=O)C1CCN(CCOc2ccc(Cc3ccccc3)cc2)CC1 = f
O=C(O)C1CCN(CCOc2ccc(Cc3ccccc3)cc2)CC1 = f

hey, is IC50 for `NC(=O)C1CCN(CCOc2ccc(Cc3ccccc3)cc2)CC1` lower than 100 nM or not?
f

Field: below-cutoff. Rule: recorded IC50 strictly less than 100 nM. Subject: OC1CCN(CCOc2ccc(Cc3ccccc3)cc2)C1 (stereo not drawn)
t

Answer whether the compound CCOC(=O)C1CCCN(CCOc2ccc(Cc3ccccc3)cc2)C1 (stereo not drawn) has IC50 strictly less than 100 nM
f

I'd appreciate it if you could check whether `CCOC(=O)CNC(=O)C1CCN(CCOc2ccc(Cc3ccccc3)cc2)CC1` has IC50 smaller than 100 nM.
f

For `OCC1CCN(CCOc2ccc(Cc3ccccc3)cc2)CC1` , is the recorded IC50 below the cut-off of 100 nM?
t
